# test settings: buffer; pH 7.4; 200.0 µM
Please respond with reported solubility kinetic for every item in the list.

Summary for this compound, `CCC(CC)C(=O)c1c[nH]c(C(=O)OC)c1` : solubility kinetic is > 33.5 µg/mL

Entry `Cc1oncc1C(=O)NC1CCCCC1` , solubility kinetic reported as > 31.2 µg/mL

The value of solubility kinetic measured for the compound `Cc1ccc(C)c(NC(=S)N(C)C)c1` turned out to be > 31.2 µg/mL

`CC(=O)c1cc(F)ccc1OCC(=O)Nc1ccc2c(c1)OCO2` has a reported solubility kinetic of 7.8 µg/mL

Given item O=C(NC1CC(=O)N(c2ccccc2)C1)C1CC1 (stereo not given) , the value recorded as its solubility kinetic is > 36.6 µg/mL

Data provenance is PubChem BioAssay AID1996.
